Molecular target: Transcriptional activator Myb (Homo sapiens)
Test: ATG_Myb_CIS: Attagene CIS-FACTORIAL HepG2 Assay for human Myeloblastosis (Myb) Proto-Oncogene Transcription Factor (AID 2282986)
Settings: HepG2 Attagene CIS-FACTORIAL Myb reporter transcription; actives raise or lower the signal
Activity calls are given as the source filed them. Rule for the calls: active = hit-call score of the fitted dose curve at least 0.9, where 1 is the maximum; inactive = score below 0.9.
Give one outcome, nothing more. List: active, inactive

Please indicate how the test categorized `C1CN2CCN1CC2` . inactive

For `C=CCOC(N)=O` , what call appears in the results of this test? inactive

What did this assay record as the result for O=C1c2ccccc2C(=O)C1C(=O)C(c1ccccc1)c1ccc(Cl)cc1 (stereo unspecified) ? active

Please let me know the test result on file for `O=C(O)COc1cc(Cl)c(Cl)cc1Cl` . inactive

What did this assay record as the result for `c1csc(-c2ccc(-c3cccs3)s2)c1` ? inactive

Given `OC[C@@H](O)[C@H]1O[C@@H]2O[C@H](C(Cl)(Cl)Cl)O[C@@H]2[C@H]1O` , state the outcome it received in this test. inactive

In this assay, the call recorded for C=CC(Cl)CCl (stereo unspecified) was what? inactive

For CC(C)=CC1C(C(=O)OCc2cccc(Oc3ccccc3)c2)C1(C)C (stereo unspecified) , what call appears in the results of this test? inactive

Hi, do you know how `NNCCO` came out in this test? inactive

What was the test verdict on `O=C(O)COc1ccc(Cl)cc1` ? inactive

In this assay, the call recorded for `COc1ccc(N)cc1` was what? inactive

So what was the verdict on `CC(C)[N+](=O)[O-]` in this test? inactive

Returns: the outcome recorded for `CCNc1nc(NCC)nc(SC)n1` in this assay. inactive

How was `CCCCCCCCCCCCBr` classified in this test? inactive

Tell me the recorded outcome of this test for `Cc1ccccc1OP(=O)(Oc1ccccc1)Oc1ccccc1` . inactive

Recorded test call requested for `C#CCO` inactive

Look up the recorded call for `CC(C)(C)c1ccccc1O` in this test. inactive

Tell me the assay call for `CNC(=O)CSP(=O)(OC)OC` please. inactive

Dear all, I need the recorded test outcome for `CN(N=O)c1ccc([N+](=O)[O-])cc1` , thank you. inactive

# fetch the recorded call for `CNC(=O)N(C)c1nc2ccccc2s1` here inactive

Which outcome was entered for the compound `CC(c1ccccc1)(c1ccc(O)cc1)c1ccc(O)cc1` in this test? inactive

Hello, I am checking results. What call was entered for `CCCCN(CCCC)C(=S)S` ? active

Look up the recorded call for `C=CCOC(F)(C(F)(F)F)C(F)(F)F` in this test. inactive

# outcome recorded in this test, key = `C[C@H]1C(=O)O[C@@H]2CCN3CC=C(COC(=O)[C@](C)(O)[C@]1(C)O)[C@H]23` inactive

Could you please tell me the result logged for `CC(C)CC(C)(c1ccc(O)cc1)c1ccc(O)cc1` in this assay? inactive

How was `N#Cc1ccccc1Cl` classified in this test? inactive

// param item: `O=C(Cl)OCCOCCOC(=O)Cl` ; yields the recorded call inactive

How did this test come out for CC(C)(C1CCC(O)CC1)C1CCC(O)CC1 (stereo unspecified) ? inactive

Would you mind telling me which call this test gave `Oc1cccc(-c2ccccc2)c1` ? inactive

Assay outcome for `CCOP(=O)(OCC)OC(=CCl)c1ccc(Cl)cc1Cl` : what was it? inactive

Query: recorded result category for `COCCl` in this test inactive

---

Assay: ATG_PBREM_CIS: Attagene CIS-FACTORIAL HepG2 Assay for human Phenobarbital-responsive Enhancer Module (PBREM) (AID 2282955)
Details: HepG2 PBREM cis-reporter, Attagene multiplexed transcription; actives raise or lower the signal
Activity calls are given as the source filed them. How the source made its calls: active means hit-call score of the fitted dose curve at least 0.9, where 1 is the maximum; inactive means score below 0.9.
Choose one outcome from this list and give only that: active, inactive

Query: recorded result category for CC(C)(C1CCC(O)CC1)C1CCC(O)CC1 (stereo unspecified) in this test inactive

# fetch the recorded call for `Cc1c([N+](=O)[O-])c(C)c([N+](=O)[O-])c(C(C)(C)C)c1[N+](=O)[O-]` here inactive

Outcome logged for `CCCCCCCCBr` in this assay: inactive

Entry `O=C(Cl)OCCOCCOC(=O)Cl` : call = ? inactive

State the result this test recorded for `CCCCOC(=O)COC(=O)c1ccccc1C(=O)OCCCC` . inactive

What outcome does the record of this test show for `CN(C)c1ccc(N=O)cc1` ? inactive

Hey, what did the test say about `N#Cc1cccnc1` ? inactive

Test call, this compound: `C[C@@H]1O[C@@H](O[C@H]2C[C@@H](O)[C@]3(CO)[C@H]4[C@H](O)C[C@]5(C)[C@@H](C6=CC(=O)OC6)CC[C@]5(O)[C@@H]4CC[C@]3(O)C2)[C@H](O)[C@H](O)[C@H]1O` inactive

Field: outcome | Entry: `c1csc(-c2ccc(-c3cccs3)s2)c1` active

Could you check what this test reported for `Cc1cc(C(F)(C(F)(F)F)C(F)(F)F)ccc1NC(=O)c1cccc(I)c1C(=O)NC(C)(C)CS(C)(=O)=O` ? inactive

What did the test return for CC(C=O)Cc1ccc2c(c1)OCO2 (stereo unspecified) ? inactive

---

Experiment: ATG_PXRE_CIS: Attagene CIS-FACTORIAL HepG2 Assay for human Pregnane X Receptor Element (PXRE) (AID 2282957)
Details: HepG2 Attagene CIS-FACTORIAL PXRE reporter, mRNA; actives raise or lower the signal
The source made the active and inactive calls. Rule for the calls: active = hit-call score of the fitted dose curve at least 0.9, where 1 is the maximum; inactive = score below 0.9.
Bench note: report the call from active, inactive

Identify the outcome logged in this assay for the molecule shown: C#CCOC(=O)/C=C(C)/C=C/CC(C)CCCC(C)C (stereo not drawn) inactive

Hi, sorry to bother you, what did the test record for CCOC(=O)C(SP(=S)(OC)OC)c1ccccc1 (stereo not drawn) ? active

Short answer needed: outcome of this test for `Brc1ccc(Oc2c(Br)cc(Br)cc2Br)c(Br)c1` ? inactive

What classification did `Cc1ccccc1OP(=O)(Oc1ccccc1C)Oc1ccccc1C` end up with in this test? active

Name the outcome recorded for CC(C)(COCC1CO1)COCC1CO1 (stereo not drawn) in the assay. active

Which outcome did this test record for the molecule `C=CC(=O)NC(C)(C)CC(C)=O` ? inactive

Record request — test call for `CC(C)(c1ccc(O)c(-c2ccccc2)c1)c1ccc(O)c(-c2ccccc2)c1` active

What was the test verdict on `N#CCC#N` ? inactive

---

Assay: ATG_ERE_CIS: Attagene CIS-FACTORIAL HepG2 Assay for Estrogen Response Element (ERE) (AID 2282940)
Conditions: HepG2 ERE cis-reporter, Attagene RNA transcript; actives raise or lower the signal
Active and inactive are the calls of the source. The calls were made as follows: active = hit-call score of the fitted dose curve at least 0.9, where 1 is the maximum; inactive = score below 0.9.
Select the matching outcome among active, inactive

What was the test verdict on `CC(=Cc1ccccc1)[N+](=O)[O-]` ? inactive

Please indicate how the test categorized `Nc1c(Oc2ccccc2)cc(O)c2c1C(=O)c1ccccc1C2=O` . inactive

Can you look up the reported call for `Oc1c(Br)cc(Br)cc1Br` for me? active

Check the results log: what was the call for `N#Cc1ccc(Cl)cc1` ? inactive

Test call, this compound: CCC(C)(C#N)N=NC(C)(C#N)CC (centres undefined) inactive

For `[Cl][Sn]([c]1ccccc1)([c]1ccccc1)[c]1ccccc1` , what call appears in the results of this test? active

Given `c1ccc2sc(SNC3CCCCC3)nc2c1` , state the outcome it received in this test. inactive

What outcome does the record of this test show for `CCOC(=O)CC(=O)CCl` ? inactive

Which outcome was entered for the compound `CNC(=O)O/N=C/C(C)(C)S(C)(=O)=O` in this test? inactive

Recorded test outcome, item `O=C(Nc1ccc(Br)cc1)c1cc(Br)cc(Br)c1O` inactive

// param item: `O=S(=O)(F)C(F)(F)C(F)(F)C(F)(F)C(F)(F)F` ; yields the recorded call inactive

Given `ClCc1ccccc1CCl` , state the outcome it received in this test. inactive

What call does the record list for `COCC(=O)N(c1c(C)cccc1C)[C@H](C)C(=O)OC` ? inactive

GET /call?item= `O=C(Cc1ccccc1)OCCc1ccccc1` returns the recorded outcome of this test. inactive

Any idea what this test logged for `CCC[N+](CCC)(CCC)CCC` ? inactive

What classification did `CCN(N=O)C(N)=O` end up with in this test? inactive

Recorded test call requested for `N#Cc1cccnc1` inactive

Dear all, I need the recorded test outcome for `O=CCCl` , thank you. inactive

Call for entry `C=CC(=O)OCC(COC(=O)C=C)(COC(=O)C=C)COC(=O)C=C` : inactive

Please share the test call associated with `Nc1nc(=S)[nH][nH]1` . inactive

Any idea what this test logged for `N#Cc1ccccc1N` ? inactive

GET /call?item= CC(C)[C@@H](Nc1ccc(C(F)(F)F)cc1Cl)C(=O)OC(C#N)c1cccc(Oc2ccccc2)c1 (some centres undefined) returns the recorded outcome of this test. inactive

Please let me know the test result on file for `CCOc1ccc(N)cc1` . inactive

I would be grateful if you could indicate the recorded call for COC(F)(C(F)(F)C(F)(F)F)C(F)(C(F)(F)F)C(F)(F)F (centres undefined) . inactive

Hi, do you know how `O=[N+]([O-])c1ccc(Nc2ccccc2)cc1` came out in this test? inactive

Tell me the recorded outcome of this test for `N#CCC#N` . inactive

Hi, do you know how `C=C(C)C(=O)OCCCCOC(=O)C(=C)C` came out in this test? inactive

Would you mind telling me which call this test gave `CC(c1ccc(O)cc1)c1ccc(O)cc1` ? active

Could you kindly confirm the outcome this assay logged for `CS(=O)(=O)c1ccc(C(=O)C2C(=O)CCCC2=O)c(Cl)c1COCC(F)(F)F` ? active
